- System: SF-268 CNS
- Procedure details: NCI tumour cell line growth inhibition, 48 h; in the data active = GI50 below about 0.43 µM; inactive = the rest
Classes to choose from: active, inactive

stdin: Query: recorded result category for "N#Cc1c(Sc2ccccc2N)cccc1Sc1ccccc1N" in this test
stdout: inactive

stdin: Another compound to check: C=C1CC2(OC1=O)C(=O)N(CCCCCCCN1C(=O)C3(CC(=C)C(=O)O3)c3ccccc31)c1ccccc12 (stereo unspecified)
stdout: inactive

stdin: Another compound to check: "COc1ccc(C(=O)/C(Br)=C/C(=O)O)cc1"
stdout: inactive

stdin: Another compound to check: "O=C(NNc1nc(Cl)nc(N2CCN(C(c3ccccc3)c3ccccc3)CC2)n1)c1ccccc1"
stdout: inactive

stdin: Another compound to check: "COc1cc(/C(C#N)=C/c2ccc3c(c2OC)OCO3)cc2c1OCO2"
stdout: active

stdin: Another compound to check: "O=C1NCc2ccc3c(-c4cccc(Cl)c4)c[nH]c3c21"
stdout: inactive
